Test: Pharmacokinetic assay in mice, plasma concentration by LC-MS/MS
Type: in vivo, CD-1 male mice
Conditions: male, CD-1, mouse, PO, 10 mg/kg
Metric: Tmax (min)

[1] [O-][S+]1CCc2nc(N3Cc4ccc(Cl)cc4C3)nc(NC3(CO)CCC3)c21 (racemic)
[2] [O-][S+]1CCc2nc(N3CCC(c4ncc(Cl)cn4)CC3)nc(NC3(CO)CCC3)c21 (centres unmarked) [Control 1, reference compound]
Qu. Of 1 and 2 , which carries the smaller reported Tmax figure? Please identify the chosen entry by its label.
Ans. 2

====

Test: Pharmacokinetic assay in mice, plasma concentration by LC-MS/MS
Assay type: in vivo, CD-1 male mice
Details: male, CD-1, mouse, IV, 2 mg/kg
Method: Assay 2: Pharmacokinetic Assay by Using LC-MS/MS to Determine the Compound Concentration in Mice […] All collected plasma samples were stored on dry ice or in a freezer until analysis. The drug concentration was determined using a Triple-quadrupole MS system (SCIEX), including standard curve and quality control preparation, and sample preparation. […]
Metric: half-life (h)

[I] [O-][S+]1CCc2nc(N3CCC(c4ncc(Cl)cn4)CC3)nc(NC3(CO)CCC3)c21 (centres unmarked) [Control 1, reference compound]
[II] [O-][S+]1CCc2nc(N3Cc4ccc(Cl)cc4C3)nc(NC3(CO)CCC3)c21 (racemic)
Qu. // pick min by half-life: I , II Refer to your chosen entry by its label in the reply.
Ans. I

====

Test: Pharmacokinetic assay in mice, plasma concentration by LC-MS/MS
Assay type: in vivo, CD-1 male mice
Conditions: male, CD-1, mouse, IV, 2 mg/kg
Metric: AUC(0-inf) (ng·h/mL)

[a] [O-][S+]1CCc2nc(N3Cc4ccc(Cl)cc4C3)nc(NC3(CO)CCC3)c21 (racemic) [Compound 25]
[b] [O-][S+]1CCc2nc(N3CCC(c4ncc(Cl)cn4)CC3)nc(NC3(CO)CCC3)c21 (centres unmarked) [Control 1, reference compound]
Qu. Please let me know which one, a or b , has a lower measured AUC(0-inf) value. Lab note: record the label of whichever item you select.
Ans. b
(b: 2900 ng·h/mL, a: 17600 ng·h/mL)

====

Target: PDE4B2 (Homo sapiens, UniProt Q07343)
Construct: purchased BPS bioscience
Sequence (Q07343 1-564 isoform Q07343-2): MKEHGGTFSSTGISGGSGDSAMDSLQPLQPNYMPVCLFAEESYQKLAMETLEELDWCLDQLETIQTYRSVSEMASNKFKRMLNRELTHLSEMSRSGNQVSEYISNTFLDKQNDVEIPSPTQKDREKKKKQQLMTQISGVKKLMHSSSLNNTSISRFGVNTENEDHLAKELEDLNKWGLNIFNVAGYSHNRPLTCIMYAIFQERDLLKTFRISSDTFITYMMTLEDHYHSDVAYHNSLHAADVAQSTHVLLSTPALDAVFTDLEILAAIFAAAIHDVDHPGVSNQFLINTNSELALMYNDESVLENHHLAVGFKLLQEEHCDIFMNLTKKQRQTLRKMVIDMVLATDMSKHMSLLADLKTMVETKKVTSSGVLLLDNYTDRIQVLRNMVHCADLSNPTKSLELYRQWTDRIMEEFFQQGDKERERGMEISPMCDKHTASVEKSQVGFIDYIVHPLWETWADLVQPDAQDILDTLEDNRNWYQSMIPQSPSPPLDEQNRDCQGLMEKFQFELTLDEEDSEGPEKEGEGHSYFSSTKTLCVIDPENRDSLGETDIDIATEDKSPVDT
Test: In vitro PDE4B2 enzyme inhibitory activity (AMP-Glo)
Assay type: biochemical
Settings: PDE4B2 enzyme inhibition; read-out: PDE4B2 IC50
pIC50: −log10 of the molar value.
Metric: pIC50

Query CC(C)(O)c1ccc2c(c1)CN(c1nc3c(c(NC4CCOCC4)n1)[S+]([O-])CC3)C2 (racemic) yields pIC50 of ≥ 8.70

Field pIC50 (entry COc1ccc2c(c1)CN(c1nc3c(c(NC4(CO)CCC4)n1)[S+]([O-])CC3)C2 (racemic) ) reads 8.30 to 8.70

COC1(c2ccc(Cl)cc2)CN(c2nc3c(c(NC4CCOCC4)n2)[S+]([O-])CC3)C1 (racemic) yielded pIC50 of ≥ 8.70

// pIC50 value for [O-][S+]1CCc2nc(N3CCC(c4ncc(Cl)cn4)CC3)nc(NC3(CO)CCC3)c21 (centres unmarked) [Control 1, reference compound] : 7.30 to 7.70

For record COC1(c2ccc(OC(F)F)cc2)CN(c2nc3c(c(NC4(CO)CCC4)n2)[S+]([O-])CC3)C1 (racemic) the listed pIC50 is ≥ 8.70

Per the record, [O-][S+]1CCc2nc(C3=CCN(c4ncc(Cl)cn4)CC3)nc(NC3(CO)CCC3)c21 (racemic) has pIC50 of 8.30 to 8.70

Per the record, [O-][S+]1CCc2nc(N3Cc4ccc(Cl)cc4C3)nc(NC3(CO)CCC3)c21 (racemic) has pIC50 of 8.30 to 8.70

// pIC50 lookup, molecule = COC1(c2ccc(N(C)C)cc2)CN(c2nc3c(c(NC4(CO)CCC4)n2)[S+]([O-])CC3)C1 (racemic) , result: ≥ 8.70

For this molecule ( [O-][S+]1CCc2nc(N3Cc4ccc(OC(F)F)cc4C3)nc(NC3(CO)CCC3)c21 (racemic) ), measured pIC50 is 8.30 to 8.70

Entry COc1ccc(C2(O)CN(c3nc4c(c(NC5(CO)CCC5)n3)[S+]([O-])CC4)C2)cc1 (racemic) — recorded pIC50 = 8.30 to 8.70
